Entry source: paper doi:10.1101/2021.04.25.441314

- MEASUREMENT_TARGET: Hfq wt (Escherichia coli, UniProt P0A6X3 1-102)
- ASSAY_COMMENT: filter binding
ENDPOINT: pKd
Interpret pKd as the negative base-10 log of the concentration measured in mol/L.

Entry AgvB-U9 (structured_RNA) RNA: GGCGAUAACACAACAAUAUCAGUAUCUCAUGCUAUUGCCCGAACCCAUUCGGGCAUUUUUUUUU ; pKd = 9.74
